measurement.target: T1, human NMI (N-myc Interacting protein), recombinant protein (human, UniProt Q13287 1-307, limits assumed)
T1 construct: Gene ID: 9111; also called hNMI; antigen
T1 sequence (looked up): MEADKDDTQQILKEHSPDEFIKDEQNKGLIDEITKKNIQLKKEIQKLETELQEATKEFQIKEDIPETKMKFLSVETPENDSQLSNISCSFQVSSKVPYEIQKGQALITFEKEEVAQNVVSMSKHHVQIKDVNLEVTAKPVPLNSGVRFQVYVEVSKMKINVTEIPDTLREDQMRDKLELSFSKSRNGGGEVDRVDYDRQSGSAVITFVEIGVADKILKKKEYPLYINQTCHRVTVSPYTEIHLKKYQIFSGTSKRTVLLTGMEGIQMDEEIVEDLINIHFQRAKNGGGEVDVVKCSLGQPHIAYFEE
test.method.notes: sandwich ELISA; detection 94C4-1-biotin 0.5µg/mL; hNMI 12,500.000 pg/mL
measured.parameter: OD450
Answer as a quantity: numeral, then unit.

Quick one: OD450 for monoclonal antibody B-8 (antibody, V domains shown, Rabbit monoclonal antibody; also called B8-1) VH: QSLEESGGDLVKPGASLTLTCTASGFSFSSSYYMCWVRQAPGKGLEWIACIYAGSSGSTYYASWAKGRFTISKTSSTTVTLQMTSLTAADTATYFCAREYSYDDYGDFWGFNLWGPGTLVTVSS VL: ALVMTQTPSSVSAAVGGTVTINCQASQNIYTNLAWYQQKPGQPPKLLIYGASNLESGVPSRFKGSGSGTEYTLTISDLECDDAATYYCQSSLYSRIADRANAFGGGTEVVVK ? 2.03 OD450
